# Test system: HCT-116
# ASSAY_TEXT: NCI tumour cell line growth inhibition, 48 h
The source made the active and inactive calls. Cut-off read from the data, not from the text of the source: active = GI50 up to about 1.1 µM and inactive = higher.
# valid calls are Y = active, N = inactive; nothing else

Please review the entries below; each comes with its answer.
COMPOUND	SYSTEM	GROUP
COC(=O)C1=CSC2(S1)C(C(=O)OC)=CSc1c2ssc1=O (stereo unspecified)	HCT-116	N
[O-][S+](C(c1ccccc1)=P(c1ccccc1)(c1ccccc1)c1ccccc1)c1ccc(Cl)cc1 (stereo unspecified)	HCT-116	N
O=C1CCCC2C3CC(CN12)C1CCCCN1C3.[O-][Cl+3]([O-])([O-])O (stereo unspecified)	HCT-116	N
O=C1NC(N2CCOCC2)=N/C1=C\c1ccco1	HCT-116	N
Nc1ccn([C@H]2CO[C@@H](CO)[C@@H]2O)c(=O)n1	HCT-116	N
CC(CC[C@@]1(O)OC2C[C@H]3[C@@H]4CC[C@H]5CC(OC6OC(CO)C(OC7OC(CO)C(O)C(OC8OCC(O)C(O)C8O)C7OC7OC(CO)C(O)C(O)C7O)C(O)C6O)[C@H](O)CC5(C)[C@H]4CCC3(C)C2[C@@H]1C)COC1OC(CO)C(O)C(O)C1O (stereo partly specified)	HCT-116	N
CCn1c2c(c3c(C(=O)OC)c(O)ccc31)C(=O)c1ccccc1C2=O	HCT-116	N
COc1c(O)cc2c(c1O)C1O[C@H](CO)C(O)[C@H](O)[C@H]1OC2=O (stereo partly specified)	HCT-116	N

Query block: # fetch the recorded call for COc1cc(/C=N/N=C(\N)NO)c(Cl)cc1O here
Result block: N

Query block: # fetch the recorded call for C#Cc1cccc(NC(=O)/C=C\C(=O)O)c1 here
Result block: N

Query block: # fetch the recorded call for C1=C2/CC[C@H](Sc3ccccc3)C2C2(CCCCC/1)OCCO2 (stereo partly specified) here
Result block: N

Query block: # fetch the recorded call for Cc1ccc(-c2cc(-c3ccco3)c(C#N)c(=O)n2C2OC(OC(=O)c3ccccc3)C(OC(=O)c3ccccc3)C2OC(=O)c2ccccc2)cc1 (stereo unspecified) here
Result block: N

Query block: # fetch the recorded call for CCCCC(=O)c1c(O)nc2sccn2c1=O here
Result block: N

Query block: # fetch the recorded call for CN(C)/C(=N\C#N)NCc1ccccc1 here
Result block: N

Query block: # fetch the recorded call for CC(C)(C)N1CC1CNC(=O)C(=O)NCC1CN1C(C)(C)C (stereo unspecified) here
Result block: N

----------
Recorded GI50, one value per entry.
# Test system: CAKI-1
# ASSAY_TEXT: NCI tumour cell line growth inhibition, 48 h
Active and inactive are the calls of the source. Cut-off read from the data, not from the text of the source: active = GI50 up to about 1.1 µM and inactive = higher.

MOLECULE	GI50
CC(O[Si](c1ccccc1)(c1ccccc1)C(C)(C)C)[C@H](NC(=O)OC(C)(C)C)C(=O)O[Si](c1ccccc1)(c1ccccc1)C(C)(C)C (stereo partly drawn)	12.4 µM (inactive)
N#Cc1nc(-c2ccccn2)c(-c2ccccn2)nc1C#N	2.04 µM (inactive)
CC(=O)C12C[C@](C#N)(N3CCCCCC3)C1C=Cc1ccccc12 (stereo partly drawn)	> 100 µM (inactive)
CCCCCCCCCCCCCCCCCC(=O)Nc1ccn(C2OC(CO)C(O)C2O)c(=O)n1 (stereo not drawn)	10.5 µM (inactive)
CC1OC(OC2C(O)COC(OC3C(C)OC(OC4C(OC(=O)[C@]56CCC(C)(C)C[C@@H]5C5=CCC7[C@@]8(C)C[C@H](O)[C@H](OC9OC(CO)C(O)C(OC%10OC(CO)C(O)C(O)C%10O)C9O)[C@@](C)(CO)[C@@H]8CC[C@@]7(C)[C@]5(C)CC6)OCC(O)C4O)C(O)C3O)C2O)C(O)C(O)C1O (stereo partly drawn)	3.19 µM (inactive)
Cn1c(=O)oc2cc(C(=O)CSC(=S)N3CCCCCC3)ccc21	> 100 µM (inactive)

Query block: For CAKI-1, give the measured GI50 of the entry CCOC(=O)N/N=C(/OCC)c1ccccc1
Result block: > 100 µM (inactive)

Query block: For CAKI-1, give the measured GI50 of the entry CN(Cc1cc(Br)cc(Br)c1O)Cc1c(O)ccc2ccccc12
Result block: 16.1 µM (inactive)

----------
Recorded GI50, one value per entry.
# Tested on: CAKI-1
# ASSAY_TEXT: NCI tumour cell line growth inhibition, 48 h
The source made the active and inactive calls. Rule as the data show it: active = GI50 up to about 1.1 µM and inactive = higher.

Completed entries (count: 2):
COMPOUND	GI50
O=c1ccc2nc3cc(Br)ccc3sc-2c1	32.3 µM (inactive)
COc1cccc2c1C(=O)c1c(O)c3c(c(O)c1C2=O)C[C@@](O)(C(C)=O)C[C@@H]3OC1CC(N(C)C)C(O)C(C)O1 (some centres undefined)	0.00904 µM (active)

Query block: Given Cc1cccc2c(N)c3cccc(C(=O)NCC[N+](C)(C)Cc4ccc(S(C)(=O)=O)cc4)c3nc12 , respond with its GI50.
Result block: 26.1 µM (inactive)

Query block: Given CC1(O)C(=O)OC2CC([C@]3(O)CCC4[C@@H]5C[C@H]6O[C@]67[C@@H](O)C=CC(=O)[C@]7(C)C5CC[C@@]43C)C1(C)C2 (some centres undefined) , respond with its GI50.
Result block: 11.8 µM (inactive)

Query block: Given O=C(O)Cc1ccc2c(c1)/C(=C1/Nc3ccccc3C1=O)C(=O)N2 , respond with its GI50.
Result block: 24.8 µM (inactive)

Query block: Given C[N+](C)(C)CCN(Cc1cccs1)c1ccccn1 , respond with its GI50.
Result block: > 100 µM (inactive)

Query block: Given COc1cc([C@@H]2c3cc4c(c(O)c3C[C@H]3COC(=O)[C@@H]32)OCO4)cc(OC)c1OC , respond with its GI50.
Result block: 0.015 µM (active)

Query block: Given Cc1cc(C)cc(NC(=O)CCC(=O)C2CCC/C2=N\NC(=O)C(=O)NN)c1 (centres undefined) , respond with its GI50.
Result block: > 100 µM (inactive)

Query block: Given CCCCC(=O)c1c(O)nc2sccn2c1=O , respond with its GI50.
Result block: > 10 µM (inactive)

Query block: Given Cc1c2c(n3c(nc4ccccc43)c1C#N)N(c1ccc(Cl)cc1)CC2 , respond with its GI50.
Result block: > 100 µM (inactive)

Query block: Given COc1cc(C2c3cc4c(cc3OC(NN)C2C)OCO4)cc(OC)c1O (centres undefined) , respond with its GI50.
Result block: 10.4 µM (inactive)

Query block: Given C=CCC(C(=O)OC)C1(C(=O)OC)c2[nH]c3ccccc3c2CCN1Cc1ccccc1 (centres undefined) , respond with its GI50.
Result block: 66.8 µM (inactive)

Query block: Given O=[N+]([O-])/C(C(Cl)=C(Cl)Cl)=C(\N1CCCCC1)n1nnc2ccccc21 , respond with its GI50.
Result block: 15.3 µM (inactive)

Query block: Given C=C1N(C=O)C(C)(C)N(O)C1(C)C , respond with its GI50.
Result block: > 100 µM (inactive)

Query block: Given COC1C(N(C)C)=C(c2ccccc2)C(=O)N2CCc3ccccc3C12 (centres undefined) , respond with its GI50.
Result block: > 100 µM (inactive)

----------
# Tested on: U-251
# ASSAY_TEXT: NCI tumour cell line growth inhibition, 48 h
Activity calls are given as the source filed them. Rule as the data show it: active = GI50 up to about 1.1 µM and inactive = higher.
# valid calls are true (1) = active, false (0) = inactive; nothing else

> print(dat)
                                   compound      group
1  CC1(C)CC(N2CCN(C3CC(C)(C)NC(C)(C)C3)CC2)CC(C)(C)N1  false (0)

Query block: # fetch the recorded call for COC(=O)c1c2c(cc3c1CC1(Cc4cc5c(c(C=O)c4C1)CCCC5)C3)CCCC2 (stereo not drawn) here
Result block: false (0)

Query block: # fetch the recorded call for COc1ccc(NC(=O)CSc2nnc(-c3ccc(/N=C\c4ccc(Cl)cc4)cc3)o2)cc1 here
Result block: false (0)

Query block: # fetch the recorded call for O=C(COc1ccc2c(=O)cc(-c3ccccc3)oc2c1)N1CCN(c2ccccc2)CC1 here
Result block: false (0)

Query block: # fetch the recorded call for C=C1C(=O)O[C@H]2C[C@@H]1C(=O)CC(C)CCCC(C)=CCC[C@@]2(C)O (stereo partly drawn) here
Result block: false (0)

----------
# System: HCT-116
# ASSAY_TEXT: NCI tumour cell line growth inhibition, 48 h
Calls of active or inactive are those of the source. No stated cut-off is given here; in the data, active = GI50 up to about 1.1 µM and inactive = higher.
# valid calls are yes (1) = active, no (0) = inactive; nothing else

Please review the entries below; each comes with its answer.
COMPOUND	GROUP
O=C1O/C(=C(/Cl)c2c3ccccc3cc3ccccc23)c2ccccc21	no (0)
O=[N+]([O-])c1ccc(/C=C/c2csnn2)cc1	no (0)

Query block: # fetch the recorded call for C#CCN(Cc1ccc2nc(-c3ccccc3)c(N)nc2c1)c1cc(OC)c(OC)c(OC)c1 here
Result block: no (0)

Query block: # fetch the recorded call for COc1ccc(-c2ccc(C(=O)C=P(c3ccccc3)(c3ccccc3)c3ccccc3)cc2)cc1 here
Result block: no (0)

These measurements were taken from ChEMBL document CHEMBL1201862.
